Species: Homo sapiens
Assay: Binding affinity to human telomeric G-quadruplex 5'-d(GGG[TTAGGG]3)-3' DNA assessed as change in melting temperature at 25 uM measured at 265 nM wavelength by circular dichroism spectroscopic analysis
Entries annotated with measured ΔTm
property: ΔTm (°C)

[[record]]
structure = "CN(C)CCCNc1nc(-c2ccc(Cl)cc2NC(=O)CCN2CCN(C)CC2)nc2ccccc12"
readoutunit = "°C"
comparativesign = "="
observedvalue = 14.4

[[record]]
structure = "CN(C)CCCNc1nc(-c2ccccc2NC(=O)c2ccc(NC(=O)CN3CCOCC3)cc2)nc2ccccc12"
readoutunit = "°C"
comparativesign = "="
observedvalue = 11.9

[[record]]
structure = "CN(C)CCCNCCC(=O)Nc1ccc(C(=O)Nc2ccccc2-c2nc(NCCCN(C)C)c3ccccc3n2)cc1"
readoutunit = "°C"
comparativesign = ">"
observedvalue = 28

[[record]]
structure = "CN(C)CCCNc1nc(-c2ccc(Cl)cc2NC(=O)c2ccc(NC(=O)CCN3CCCC3)cc2)nc2ccccc12"
readoutunit = "°C"
comparativesign = ">"
observedvalue = 28

[[record]]
structure = "CCN(CC)CC(=O)Nc1ccccc1-c1nc(NCCCN(C)C)c2ccccc2n1"
readoutunit = "°C"
comparativesign = "="
observedvalue = 2.1

[[record]]
structure = "CN(C)CCCNc1nc(-c2ccc(Cl)cc2NC(=O)c2ccc(NC(=O)CCN3CCOCC3)cc2)nc2ccccc12"
readoutunit = "°C"
comparativesign = "="
observedvalue = 21.6


====

Species: Homo sapiens
Experiment: Binding affinity to human telomeric G-quadruplex 5'-d(GGG[TTAGGG]3)-3' DNA assessed as change in melting temperature at 25 uM measured at 290 nM wavelength by circular dichroism spectroscopic analysis
property: ΔTm (°C)

[[record]]
structure = "CN(C)CCCNc1nc(-c2ccccc2NC(=O)c2ccc(NC(=O)CN3CCN(C)CC3)cc2)nc2ccccc12"
property = "ΔTm"
readoutunit = "°C"
observedvalue = 7.4

[[record]]
structure = "CN(C)CCCNc1nc(-c2ccccc2NC(=O)CCN2CCN(C)CC2)nc2ccccc12"
property = "ΔTm"
readoutunit = "°C"
observedvalue = 2.1

[[record]]
structure = "CN(C)CCCNc1c2ccccc2nc2c1[nH]c1ccccc12"
property = "ΔTm"
readoutunit = "°C"
observedvalue = 8

[[record]]
structure = "CN(C)CCCNc1nc(-c2ccc(Cl)cc2NC(=O)c2ccc(NC(=O)CCN3CCCC3)cc2)nc2ccccc12"
property = "ΔTm"
readoutunit = "°C"
observedvalue = 5.7

[[record]]
structure = "CCN(CC)CC(=O)Nc1ccccc1-c1nc(NCCCN(C)C)c2ccccc2n1"
property = "ΔTm"
readoutunit = "°C"
observedvalue = 0.7

[[record]]
structure = "CN(C)CCCNc1nc(-c2ccc(Cl)cc2NC(=O)c2ccc(NC(=O)CCN3CCOCC3)cc2)nc2ccccc12"
property = "ΔTm"
readoutunit = "°C"
observedvalue = 4.7


====

Species on record: Homo sapiens
Test: Binding affinity to human telomeric G-quadruplex 5'-d(GGG[TTAGGG]3)-3' DNA assessed as change in melting temperature at 25 uM measured at 265 nM wavelength by circular dichroism spectroscopic analysis
Label Condition met when ΔTm is strictly below 10 °C; at or above that, label Condition not met.

[[record]]
structure = "CN(C)CCCNc1nc(-c2ccccc2NC(=O)c2ccc(NC(=O)CN3CCCC3)cc2)nc2ccccc12"
discretelabel = "Condition not met"

[[record]]
structure = "CN(C)CCCNc1nc(-c2ccccc2NC(=O)CCN2CCCC2)nc2ccccc12"
discretelabel = "Condition met"

[[record]]
structure = "CN(C)CCCNc1nc(-c2ccccc2NC(=O)CN2CCOCC2)nc2ccccc12"
discretelabel = "Condition met"

[[record]]
structure = "CN(C)CCCNc1nc(-c2ccccc2NC(=O)CN2CCCC2)nc2ccccc12"
discretelabel = "Condition met"

[[record]]
structure = "CCN(CC)CCC(=O)Nc1ccc(C(=O)Nc2ccccc2-c2nc(NCCCN(C)C)c3ccccc3n2)cc1"
discretelabel = "Condition not met"

[[record]]
structure = "CN(C)CCCNc1nc(-c2ccc(Cl)cc2NC(=O)c2ccc(NC(=O)CCN3CCN(C)CC3)cc2)nc2ccccc12"
discretelabel = "Condition not met"

[[record]]
structure = "CN(C)CCCNc1nc(-c2ccccc2NC(=O)c2ccc(NC(=O)CCN3CCN(C)CC3)cc2)nc2ccccc12"
discretelabel = "Condition not met"

[[record]]
structure = "CCN(CC)CCC(=O)Nc1ccccc1-c1nc(NCCCN(C)C)c2ccccc2n1"
discretelabel = "Condition met"

[[record]]
structure = "CCN(CC)CCC(=O)Nc1ccc(C(=O)Nc2cc(Cl)ccc2-c2nc(NCCCN(C)C)c3ccccc3n2)cc1"
discretelabel = "Condition not met"

[[record]]
structure = "CN(C)CCCNc1nc(-c2ccccc2NC(=O)CCN2CCN(C)CC2)nc2ccccc12"
discretelabel = "Condition met"

[[record]]
structure = "CN(C)CCCNCCC(=O)Nc1ccc(C(=O)Nc2cc(Cl)ccc2-c2nc(NCCCN(C)C)c3ccccc3n2)cc1"
discretelabel = "Condition not met"

[[record]]
structure = "CN(C)CCCNc1c2ccccc2nc2c1[nH]c1ccccc12"
discretelabel = "Condition not met"

[[record]]
structure = "CN(C)CCCNc1nc(-c2ccccc2NC(=O)c2ccc(NC(=O)CCN3CCCC3)cc2)nc2ccccc12"
discretelabel = "Condition not met"

[[record]]
structure = "CN(C)CCCNc1nc(-c2ccccc2NC(=O)CCN2CCOCC2)nc2ccccc12"
discretelabel = "Condition met"

[[record]]
structure = "CN(C)CCCNCCC(=O)Nc1ccccc1-c1nc(NCCCN(C)C)c2ccccc2n1"
discretelabel = "Condition not met"

[[record]]
structure = "CN(C)CCCNc1nc(-c2ccccc2NC(=O)c2ccc(NC(=O)CN3CCN(C)CC3)cc2)nc2ccccc12"
discretelabel = "Condition not met"

[[record]]
structure = "CN(C)CCCNc1nc(-c2ccccc2NC(=O)c2ccc(NC(=O)CCN3CCOCC3)cc2)nc2ccccc12"
discretelabel = "Condition not met"

[[record]]
structure = "CCN(CC)CC(=O)Nc1ccc(C(=O)Nc2ccccc2-c2nc(NCCCN(C)C)c3ccccc3n2)cc1"
discretelabel = "Condition not met"

[[record]]
structure = "CN(C)CCCNc1nc(-c2ccccc2NC(=O)CN2CCN(C)CC2)nc2ccccc12"
discretelabel = "Condition met"


====

Species: Homo sapiens
Test: Binding affinity to human telomeric G-quadruplex 5'-d(GGG[TTAGGG]3)-3' DNA assessed as change in melting temperature at 25 uM measured at 290 nM wavelength by circular dichroism spectroscopic analysis
Rule: ΔTm under 3 °C gives Not fulfilled, otherwise Fulfilled.

[[record]]
structure = "CN(C)CCCNc1nc(-c2ccc(Cl)cc2NC(=O)c2ccc(NC(=O)CCN3CCN(C)CC3)cc2)nc2ccccc12"
discretelabel = "Fulfilled"

[[record]]
structure = "CN(C)CCCNCCC(=O)Nc1ccccc1-c1nc(NCCCN(C)C)c2ccccc2n1"
discretelabel = "Fulfilled"

[[record]]
structure = "CN(C)CCCNc1nc(-c2ccccc2NC(=O)c2ccc(NC(=O)CN3CCCC3)cc2)nc2ccccc12"
discretelabel = "Fulfilled"

[[record]]
structure = "CN(C)CCCNc1nc(-c2ccccc2NC(=O)c2ccc(NC(=O)CN3CCOCC3)cc2)nc2ccccc12"
discretelabel = "Fulfilled"

[[record]]
structure = "CCN(CC)CC(=O)Nc1ccc(C(=O)Nc2ccccc2-c2nc(NCCCN(C)C)c3ccccc3n2)cc1"
discretelabel = "Fulfilled"

[[record]]
structure = "CN(C)CCCNc1nc(-c2ccc(Cl)cc2NC(=O)CCN2CCN(C)CC2)nc2ccccc12"
discretelabel = "Fulfilled"

[[record]]
structure = "CN(C)CCCNc1nc(-c2ccccc2NC(=O)c2ccc(NC(=O)CCN3CCN(C)CC3)cc2)nc2ccccc12"
discretelabel = "Fulfilled"

[[record]]
structure = "CCN(CC)CCC(=O)Nc1ccccc1-c1nc(NCCCN(C)C)c2ccccc2n1"
discretelabel = "Not fulfilled"

[[record]]
structure = "CN(C)CCCNc1nc(-c2ccccc2NC(=O)CN2CCN(C)CC2)nc2ccccc12"
discretelabel = "Not fulfilled"

[[record]]
structure = "CN(C)CCCNc1nc(-c2ccccc2NC(=O)c2ccc(NC(=O)CCN3CCCC3)cc2)nc2ccccc12"
discretelabel = "Fulfilled"

[[record]]
structure = "CN(C)CCCNc1nc(-c2ccccc2NC(=O)CCN2CCOCC2)nc2ccccc12"
discretelabel = "Not fulfilled"

[[record]]
structure = "CCN(CC)CCC(=O)Nc1ccc(C(=O)Nc2cc(Cl)ccc2-c2nc(NCCCN(C)C)c3ccccc3n2)cc1"
discretelabel = "Not fulfilled"

[[record]]
structure = "CN(C)CCCNc1nc(-c2ccccc2NC(=O)c2ccc(NC(=O)CCN3CCOCC3)cc2)nc2ccccc12"
discretelabel = "Fulfilled"

[[record]]
structure = "CN(C)CCCNCCC(=O)Nc1ccc(C(=O)Nc2cc(Cl)ccc2-c2nc(NCCCN(C)C)c3ccccc3n2)cc1"
discretelabel = "Fulfilled"

[[record]]
structure = "CN(C)CCCNc1nc(-c2ccccc2NC(=O)CCN2CCCC2)nc2ccccc12"
discretelabel = "Fulfilled"

[[record]]
structure = "CN(C)CCCNc1nc(-c2ccccc2NC(=O)CN2CCCC2)nc2ccccc12"
discretelabel = "Not fulfilled"

[[record]]
structure = "CN(C)CCCNc1nc(-c2ccccc2NC(=O)CN2CCOCC2)nc2ccccc12"
discretelabel = "Not fulfilled"

[[record]]
structure = "CCN(CC)CCC(=O)Nc1ccc(C(=O)Nc2ccccc2-c2nc(NCCCN(C)C)c3ccccc3n2)cc1"
discretelabel = "Fulfilled"

